protocol-text: Plasma pharmacokinetics of phenolic metabolites after oral capsule of (poly)phenol-rich Mediterranean extract mixture
condition: oral capsule, 0-24 h, n = 6 per time point
measurement-name: AUC0-t plasma (µM·h)
Give the value, in units of µM·h, as a plain number.

Worked cases, AUC0-t plasma given:
O=S(=O)(O)Oc1cc(CCO)ccc1O [hydroxytyrosol 3-O-sulfate] : 1.432
O=C(O)C=Cc1ccc(OS(=O)(=O)O)cc1 [p-coumaric acid 4-O-sulfate] : 0.293
O=C(O)CCc1ccc(O)c(OS(=O)(=O)O)c1 [dihydrocaffeic acid 3-O-sulfate] : 0.077
O=S(=O)(O)Oc1ccc(CCO)cc1 [tyrosol 4-O-sulfate] : 0.122
COc1cc(/C=C/C(=O)O)ccc1OS(=O)(=O)O [ferulic acid 4-O-sulfate] : 1.114

Next:
# input Please report the recorded AUC0-t plasma for COc1ccc([C@@H]2CC(=O)c3c(O)cc(O[C@@H]4O[C@H](C(=O)O)[C@@H](O)[C@H](O)[C@H]4O)cc3O2)cc1O [hesperetin 7-O-glucuronide] .
# output 0.036

Origin of measurements: paper PMC12063173
